TESTED_ON: T1, human glycophorin A on human red blood cells or red blood cell membranes (human, UniProt P02724 20-150)
T1 construct: whole, on cells; also called hRBC; human RBC membranes
T1 sequence (looked up): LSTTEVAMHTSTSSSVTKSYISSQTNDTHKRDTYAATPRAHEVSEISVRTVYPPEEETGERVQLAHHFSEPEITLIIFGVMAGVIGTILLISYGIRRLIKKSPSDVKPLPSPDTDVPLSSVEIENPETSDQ
ASSAY_PROTOCOL: ELISA, Fab on coated human RBC membranes
REPORTED_METRIC: binding in ELISA relative to parental Fab

>>> reported_measurement("TPP-5842, Hu6C12-24 Fab variant VL: (S24R, A26S, S49A, P54Q, F95Y); VH: (D66G, L70M, T72R) (Fab, V domains shown, Built on the parental Fab TPP-4935) VH: EVQLVQSGAEVKKPGASVKVSCKASGYTFTTYTIHWVRQAPGQGLEWIGYINPSSDYTRYNPKFKGRVTMTRDKSTSTAYMELRSLRSDDTAVYYCQTGTRDYWGQGTTVTVSS VL: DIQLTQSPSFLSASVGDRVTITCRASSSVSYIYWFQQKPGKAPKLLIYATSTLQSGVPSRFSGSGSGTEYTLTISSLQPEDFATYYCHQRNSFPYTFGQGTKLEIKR")
"7 relative to parental Fab"
>>> reported_measurement("TPP-5907, humanized and germlined 6C12 Fab; VL: (S24R, A26S, S49A, P54Q, F95Y); VH: (I48M, S54G, D56G, D66G, L70M, T72R) (Fab, V domains shown) VH: EVQLVQSGAEVKKPGASVKVSCKASGYTFTTYTIHWVRQAPGQGLEWMGYINPGSGYTRYNPKFKGRVTMTRDKSTSTAYMELRSLRSDDTAVYYCQTGTRDYWGQGTTVTVSS VL: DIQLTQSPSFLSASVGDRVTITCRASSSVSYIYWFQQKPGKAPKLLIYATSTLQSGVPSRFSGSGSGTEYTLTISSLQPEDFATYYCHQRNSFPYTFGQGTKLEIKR")
"90.1 relative to parental Fab"
>>> reported_measurement("TPP-5698, Hu6C12-24 Fab variant VL: (S24R, A26S) (Fab, V domains shown, Built on the parental Fab TPP-4935) VH: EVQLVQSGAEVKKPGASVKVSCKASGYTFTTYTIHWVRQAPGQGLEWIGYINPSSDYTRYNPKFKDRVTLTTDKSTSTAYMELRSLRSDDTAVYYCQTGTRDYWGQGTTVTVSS VL: DIQLTQSPSFLSASVGDRVTITCRASSSVSYIYWFQQKPGKAPKLLIYSTSTLPSGVPSRFSGSGSGTEYTLTISSLQPEDFATYYCHQRNSFPFTFGQGTKLEIKR")
"0.6 relative to parental Fab"
>>> reported_measurement("TPP-5839, Hu6C12-24 Fab variant VL: (S24R, A26S, S49A, P54Q, F95Y); VH: (I48M, D66G, L70M, T72R) (Fab, V domains shown, Built on the parental Fab TPP-4935) VH: EVQLVQSGAEVKKPGASVKVSCKASGYTFTTYTIHWVRQAPGQGLEWMGYINPSSDYTRYNPKFKGRVTMTRDKSTSTAYMELRSLRSDDTAVYYCQTGTRDYWGQGTTVTVSS VL: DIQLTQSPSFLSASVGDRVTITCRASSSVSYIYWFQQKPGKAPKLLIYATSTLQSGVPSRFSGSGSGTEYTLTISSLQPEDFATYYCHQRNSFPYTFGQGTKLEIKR")
"5.8 relative to parental Fab"
>>> reported_measurement("TPP-5906, humanized and germlined 6C12 Fab; VL: (S24R, A26S, S49A, P54Q, F95Y); VH: (I48M, D56G, D66G, L70M, T72R) (Fab, V domains shown, The text says that a 6xHIS tag is present on the Fabs in the peptide ELISA; it is not in the printed chains) VH: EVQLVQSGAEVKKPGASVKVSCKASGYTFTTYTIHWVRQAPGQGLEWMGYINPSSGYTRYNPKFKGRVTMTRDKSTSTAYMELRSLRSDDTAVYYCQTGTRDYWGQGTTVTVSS VL: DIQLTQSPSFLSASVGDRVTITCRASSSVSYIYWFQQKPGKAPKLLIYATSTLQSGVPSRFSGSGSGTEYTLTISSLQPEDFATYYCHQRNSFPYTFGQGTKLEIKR")
"93.5 relative to parental Fab"
